System: C. albicans
Assay type: cell-based, Candida albicans
assay setup: 24 h
Numbered stars: 1 amine (or outer) side, 2 acyl side, 3 side chain; on linkers, the order of the positions; unused ones are H or OH. Square brackets hold non-standard residues; d marks the D form. Peptide text beside a SMILES is read from it. * marks the point of attachment. N(2-thienylmethyl)Gly = O=C(O)CNCc1cccs1; N(4-F-Bzl)Gly = O=C(O)CNCc1ccc(F)cc1; X1 = CC(c1ccccc1)N(CC(=O)[*:2])[*:1]; Myristoyl = CCCCCCCCCCCCCC(=O)*; NFurfurylGly = O=C(O)CNCc1ccco1; Gly(N(CH2)3NH2) = NCCCNCC(=O)O; NPrGly = CCCNCC(=O)O; Nlys = NCCCCNCC(=O)O
Record form. Attribute: MIC C. albicans. Fill in for each entry.
One number for each entry, in µg/mL.

[[record]]
compound = "CCCCCCCCCCCCCC(=O)NCC(=O)N(CCC)CC(=O)N(CC(=O)N(CCCCN)CC(=O)N(CC(=O)N(CC(=O)N(CCCN)CC(N)=O)Cc1cccs1)Cc1ccco1)C(C)c1ccccc1 (stereo not drawn) [Compound 911-M21] (Myristoyl-G[NPrGly][X1][Nlys][NFurfurylGly][N(2-thienylmethyl)Gly][Gly(N(CH2)3NH2)]-NH2)"
unit_of_measure = "µg/mL"
quantitative_readout = 6.25


Lab note: next compound to report on.
Q: State, in one line, measured MIC C. albicans of CCCCCCCCCCCCCC(=O)NCC(=O)N(CCC)CC(=O)N(CC(=O)N(CCCCN)CC(=O)N(CC(=O)N(CC(=O)N(CCCN)CC(N)=O)Cc1ccc(F)cc1)Cc1ccco1)C(C)c1ccccc1 (stereo not drawn) [Compound 911-M19] (Myristoyl-G[NPrGly][X1][Nlys][NFurfurylGly][N(4-F-Bzl)Gly][Gly(N(CH2)3NH2)]-NH2)
Result: 6.25
